- target-under-test: NL20 human bronchial epithelial cells expressing human Z-AAT (Homo sapiens, UniProt P01009, E366K)
- Construct: doxycycline added with compounds)
- Sequence (P01009 25-418 E366K): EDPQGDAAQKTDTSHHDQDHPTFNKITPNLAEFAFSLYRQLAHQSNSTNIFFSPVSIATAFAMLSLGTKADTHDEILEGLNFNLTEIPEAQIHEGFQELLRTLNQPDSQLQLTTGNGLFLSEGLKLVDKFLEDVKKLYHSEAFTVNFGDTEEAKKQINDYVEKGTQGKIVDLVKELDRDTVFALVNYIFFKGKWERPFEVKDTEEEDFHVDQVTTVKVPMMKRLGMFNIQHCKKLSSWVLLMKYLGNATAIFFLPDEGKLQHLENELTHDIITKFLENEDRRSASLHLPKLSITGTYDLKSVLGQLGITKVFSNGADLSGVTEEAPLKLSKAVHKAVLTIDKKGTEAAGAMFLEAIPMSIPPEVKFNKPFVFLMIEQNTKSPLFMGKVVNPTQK
- measurement-description: AAT Function Assay (MSD Assay NL20-SI Cell Line)
- assay-conditions: read-out: NL20 Functional EC50
readout: EC50

COc1cc(-n2c(C3CCCOCC3)c(-c3ccc(C(=O)O)c(OC)c3)c3c(O)cc(F)cc32)ccc1F (stereo not shown)
0.5 to 2 µM
Cc1cc(-n2c(-c3ccc(C(=O)O)cc3)c(C3CCCOC3)c3c(O)c(F)ccc32)ccc1F (stereo not shown)
0.5 to 2 µM
O=C(O)c1ccc(-c2c(C3CC4CCC(C3)O4)c3c(O)cc(F)cc3n2-c2ccc(F)c(F)c2)cc1 (stereo not shown)
> 2 µM

Could you tell me which EC50 is on file for `O=C(O)Cc1cccc(-c2c(C3CCOCC3)n(-c3ccc(F)cc3)c3cccc(O)c23)c1` ?
> 2 µM

###

Quick list: pEC50 per entry.
- target-under-test: NL20 human bronchial epithelial cells expressing human Z-AAT (Homo sapiens, UniProt P01009, E366K)
- Construct: doxycycline added with compounds)
- measurement-description: AAT Function Assay (MSD Assay NL20-SI Cell Line)
- assay-conditions: read-out: NL20 Functional EC50
pEC50: −log10 of the molar value.

O=C(O)C1CC=C(c2c(C3CCOCC3)n(-c3ccc(F)cc3)c3cccc(O)c23)CC1 (centres unmarked)
5.70 to 6.30
COCC(C)(C)c1c(-c2ccc(C(=O)O)cc2)c2c(O)cccc2n1-c1ccc(F)c(OC)c1
5.70 to 6.30
COCC(C)(C)c1c(-c2ccc(C(=O)O)c(O)c2)c2c(O)cc(F)cc2n1-c1ccc(OC)c(F)c1
5.70 to 6.30
Cc1cc(-n2c(C3CCOCC3)c(C3CC4(CC(C(=O)O)C4)C3)c3c(O)cccc32)ccc1F (single isomer, unassigned) [Compound 37]
5.70 to 6.30
COCC(C)(C)c1c(-c2ccc(C(=O)O)s2)c2c(O)c(F)ccc2n1-c1ccc(F)c(C)c1
> 6.30

Could you tell me which pEC50 is on file for `Cc1cc(-n2c(C(C)C)c(S(=O)(=O)c3ccc(C(=O)O)cc3)c3cc(F)ccc32)ccc1F` ?
5.70 to 6.30

Could you tell me which pEC50 is on file for COCC(=O)N1CCCC(c2c(-c3ccc(C(=O)O)cc3)c3c(O)cccc3n2-c2ccc(F)cc2)C1 (centres unmarked) ?
< 5.70

Could you tell me which pEC50 is on file for `COCC(C)(C)c1c(-c2ccc(C(=O)O)cc2)c2c(NCCCCO)cc(F)cc2n1-c1ccc(F)cc1` ?
5.70 to 6.30

###

- target-under-test: NL20 human bronchial epithelial cells expressing human Z-AAT (Homo sapiens, UniProt P01009, E366K)
- Construct: doxycycline added with compounds)
- measurement-description: AAT Function Assay (MSD Assay NL20-SI Cell Line)
- assay-conditions: read-out: NL20 Functional EC50
readout: EC50

O=C(O)c1ccc(-c2c(C3CCOCC3)n(-c3ccc(F)c(F)c3)c3cc(F)cc(O)c23)cc1F
< 500 nM
Cc1cc(-n2c(C(C)(C)COC(=O)NC(C)C)c(-c3ccc(C(=O)O)cc3)c3c(O)c(F)ccc32)ccc1F
500 to 2000 nM
Cc1cc(-n2c(C(C)(C)CC#N)c(-c3cnc(C(=O)O)s3)c3c(O)cc(F)cc32)ccc1F
< 500 nM
O=C(O)c1cc(-c2c(C3CCOCC3)n(-c3ccc(F)cc3)c3cccc(O)c23)c(F)cc1Cl
> 2000 nM
O=C(O)c1cc(F)cc(-c2c(C3CCOCC3)n(-c3ccc(F)cc3)c3cccc(O)c23)c1
500 to 2000 nM

Could you tell me which EC50 is on file for `Cc1cc(-n2c(C3C[C@@H]4COC[C@H]4C3)c(-c3ccc(C(=O)O)cc3)c3c(O)cc(F)cc32)ccc1F` ?
< 500 nM

Could you tell me which EC50 is on file for CCC(COC)c1c(-c2ccc(C(=O)O)c(OC)c2)c2c(O)cc(F)cc2n1-c1ccc(F)c(OC)c1 (stereo not drawn) ?
< 500 nM

Could you tell me which EC50 is on file for `O=C(O)c1n[nH]c2cc(-c3c(C4CCOCC4)n(-c4ccc(F)cc4)c4cccc(O)c34)ccc12` ?
> 2000 nM

Could you tell me which EC50 is on file for COCC(=O)N1CCC(c2c(-c3ccc(C(=O)O)cc3)c3c(O)cccc3n2-c2ccc(F)cc2)C1 (stereo not drawn) ?
> 2000 nM

###

Quick list: EC50 per entry.
- target-under-test: NL20 human bronchial epithelial cells expressing human Z-AAT (Homo sapiens, UniProt P01009, E366K)
- Construct: doxycycline added with compounds)
- measurement-description: AAT Function Assay (MSD Assay NL20-SI Cell Line)
- assay-conditions: read-out: NL20 Functional EC50

CP(C)(=O)c1ccc(-c2c(C3CCOCC3)n(-c3ccc(F)cc3)c3cccc(O)c23)cn1
> 2000 nM
CCc1cc(-c2c(C3(COC)CCC3)n(-c3ccc(F)c(OC)c3)c3cc(F)cc(O)c23)ccc1C(=O)O
< 500 nM
Cc1cc(-n2c(C3CCOCC3)c(-c3ccc(C(=O)O)c(F)c3)c3c(O)cccc32)ccc1F
< 500 nM

Now turn to the next compound.
Could you tell me which EC50 is on file for `C[C@H](O)C(=O)N1CC(n2c(C3CCOCC3)c(-c3ccc(F)cc3)c3cccc(O)c32)C1` ?
> 2000 nM

###

Quick list: IC50 per entry.
- target-under-test: purified Z-AAT protein (Homo sapiens, UniProt P01009, E366K)
- Construct: Purified Z-AAT protein from human plasma
- measurement-description: Biochemical Assay (Z-AAT Elastase Activity Assay)
- assay-conditions: purified Z-AAT pre-incubated with compound 1 hour, then hNE; N.D. = activity not detected up to 30 μM

Sample answers from the record:
NS(=O)(=O)c1ccc(-c2c(C3CCOCC3)n(-c3ccc(F)c(F)c3)c3cc(F)cc(O)c23)cc1
> 30 µM
Cc1cc(-n2c(C3CCOCC3)c([C@H]3C[C@H](C(=O)O)C3)c3cc(F)ccc32)ccc1F
> 30 µM
CC(c1c(-c2ccc(C(=O)O)cc2)c2c(O)cccc2n1-c1ccc(F)cc1)C1CCOC1 (single isomer, unassigned) [Compound 209]
> 5 µM
Cc1cc(-n2c(C3CCOCC3)c(-c3ccc(C(=O)O)cc3)c3c(O)cccc32)ccn1
> 30 µM
Cc1cc(-n2c(C3(CC#N)CCC3)c(-c3ccc(C(=O)O)cc3)c3c(N)c(F)ccc32)ccc1F
< 2 µM
Cc1cc(-n2c(C3(CC#N)CCC3)c(-c3ccc(C(=O)O)s3)c3c(O)c(F)ccc32)ccc1F
2 to 5 µM
CS(=O)(=O)N1CCCC(c2c(-c3ccc(C(=O)O)cc3)c3c(O)cccc3n2-c2ccc(F)cc2)C1 (centres unmarked)
> 5 µM
O=C(O)c1ccc(-c2c(C3CCCN(S(=O)(=O)C(F)(F)F)C3)n(-c3ccc(F)cc3)c3cccc(O)c23)cc1 (centres unmarked)
> 5 µM
CC(C)(CC#N)c1c(-c2ccc(C(=O)O)cc2)c2c(O)c(F)ccc2n1C1CCC(F)(F)CC1
> 30 µM
O=C(O)c1ccc(-c2c(C3CCOCC3)n(-c3ccc(F)cc3)c3ccc(F)cc23)cc1
> 30 µM

Could you tell me which IC50 is on file for `CN1CC(C)(c2c(-c3ccc(C(=O)O)cc3)c3c(O)cccc3n2-c2ccc(F)cc2)C1` ?
> 30 µM

Could you tell me which IC50 is on file for `O=C(O)c1ccc(-c2c(C3CCOCC3)n(-c3ccc(F)c(F)c3)c3cc(F)cc(OP(=O)(O)O)c23)cc1` ?
> 30 µM

Could you tell me which IC50 is on file for `Cc1cc(-n2c(C(C)(C)CC#N)c(-c3cc(F)c(C(=O)O)s3)c3c(O)cc(F)cc32)ccc1F` ?
< 2 µM

Could you tell me which IC50 is on file for `Cc1cc(-n2c(CC(C)(C)O)c([C@H]3C[C@H](C(=O)O)C3)c3c(O)cccc32)ccc1F` ?
> 30 µM

Could you tell me which IC50 is on file for `CS(=O)(=O)c1ccc(-c2c(C3CCOCC3)n(-c3ccc(F)c(F)c3)c3cc(F)cc(O)c23)cc1` ?
> 30 µM

###

Quick list: EC50 per entry.
- target-under-test: NL20 human bronchial epithelial cells expressing human Z-AAT (Homo sapiens, UniProt P01009, E366K)
- Construct: doxycycline added with compounds)
- measurement-description: AAT Function Assay (MSD Assay NL20-SI Cell Line)
- assay-conditions: read-out: NL20 Functional EC50

Cc1cc(-n2c(C3(C)CC(O)C3)c(-c3ccc(C(=O)O)cc3)c3c(O)cc(F)cc32)ccc1F (stereo not shown)
< 0.5 µM
Cc1cc(-n2c(C(C)C)c(C3CC(C(=O)O)(C(F)(F)F)C3)c3c(O)cccc32)ccc1F (stereo not shown)
0.5 to 2 µM
COCC(C)c1c(-c2ccc(C(=O)O)cc2)c2c(O)cc(F)cc2n1-c1ccc(F)c(F)c1 (single isomer, unassigned) [Compound 279]
< 0.5 µM
COCC(C)(C)c1c(-c2ccc(C(=O)O)c(F)c2)c2c(O)cc(F)cc2n1-c1ccc(F)cc1
< 0.5 µM
COCC(C)(C)c1c(-c2ccc(C(=O)O)cc2OC)c2c(O)cc(Cl)cc2n1-c1ccc(F)cc1
0.5 to 2 µM
COCC(C)(C)c1c(-c2ccc(C(=O)O)o2)c2c(O)cc(Cl)cc2n1-c1ccc(F)c(C)c1
> 2 µM

Could you tell me which EC50 is on file for `COc1ncc(-c2c(C3CCOCC3)n(-c3ccc(F)cc3)c3cccc(O)c23)cc1C(=O)O` ?
> 2 µM
